Exercise: state measured pIC50 for each of the compounds provided.
- System: PLC-PRF-5
- Experiment summary: Cytotoxicity against human PLC/PRF/5 cells assessed as reduction in cell viability by MTT assay
- Assay type: functional, cell-based
Counter-ions that a name gives are not always drawn.
# pIC50 is unitless: minus log10 of the molar concentration; print number only

The compound COc1cccc2c1C(=O)c1c(O)c3c(c(O)c1C2=O)C[C@@](O)(C(=O)CO)C[C@@H]3O[C@H]1C[C@H](N)[C@H](O)[C@H](C)O1 [DOXORUBICIN HYDROCHLORIDE] , when measured on PLC-PRF-5, yielded pIC50 of 5.72

The compound COc1cc(-c2ccccc2)c(=O)c(C(C)=O)c(O)c1-c1ccccc1 , when measured on PLC-PRF-5, yielded pIC50 of 5.15

The compound CC1(C)N=C2C(c3ccccc3)=CC(=O)C(c3ccccc3)=C2O1 , when measured on PLC-PRF-5, yielded pIC50 of 4.94

The compound COC1=C(c2ccccc2)C(=O)[C@@](O)(CC(C)=O)C(c2ccccc2)=C1 , when measured on PLC-PRF-5, yielded pIC50 of 5.72

The compound O=c1[nH]cc(F)c(=O)[nH]1 , when measured on PLC-PRF-5, yielded pIC50 of 5.55

----------
- Tested on: L02
- Experiment summary: Cytotoxicity against human LO2 cells assessed as reduction in cell viability by MTT assay
- Assay type: ADME, cell-based
Counter-ions that a name gives are not always drawn.
Assay endpoint: IC50 (µM)
Output spec: scalar in µM, unitless text.

The compound CC1(C)N=C2C(c3ccccc3)=CC(=O)C(c3ccccc3)=C2O1 , when measured on L02, yielded IC50 of 17.6

The compound COC1=C(c2ccccc2)C(=O)[C@@](O)(CC(C)=O)C(c2ccccc2)=C1 , when measured on L02, yielded IC50 of 11.2

The compound O=c1[nH]cc(F)c(=O)[nH]1 [FLUOROURACIL] , when measured on L02, yielded IC50 of 10.6

The compound COc1cc(-c2ccccc2)c(=O)c(C(C)=O)c(O)c1-c1ccccc1 , when measured on L02, yielded IC50 of 17.8

The compound COc1cccc2c1C(=O)c1c(O)c3c(c(O)c1C2=O)C[C@@](O)(C(=O)CO)C[C@@H]3O[C@H]1C[C@H](N)[C@H](O)[C@H](C)O1 [DOXORUBICIN HYDROCHLORIDE] , when measured on L02, yielded IC50 of 13.5

----------
- Tested on: SMMC-7721
- Experiment summary: Cytotoxicity against human SMMC7721 cells assessed as reduction in cell viability by MTT assay
- Format: functional, cell-based
Counter-ions that a name gives are not always drawn.
Assay endpoint: IC50 (µM)
Output spec: scalar in µM, unitless text.

Note to self: IC50 recorded for CC1(C)N=C2C(c3ccccc3)=CC(=O)C(c3ccccc3)=C2O1 was 4.9

Note to self: IC50 recorded for O=c1[nH]cc(F)c(=O)[nH]1 was 2.5

Note to self: IC50 recorded for COC1=C(c2ccccc2)C(=O)[C@@](O)(CC(C)=O)C(c2ccccc2)=C1 was 2.9

Note to self: IC50 recorded for COc1cccc2c1C(=O)c1c(O)c3c(c(O)c1C2=O)C[C@@](O)(C(=O)CO)C[C@@H]3O[C@H]1C[C@H](N)[C@H](O)[C@H](C)O1 [DOXORUBICIN HYDROCHLORIDE] was 1.1

Note to self: IC50 recorded for COc1cc(-c2ccccc2)c(=O)c(C(C)=O)c(O)c1-c1ccccc1 was 10.3

----------
- System: Hexokinase-2 (Homo sapiens)
- Sequence (P52789 whole entry): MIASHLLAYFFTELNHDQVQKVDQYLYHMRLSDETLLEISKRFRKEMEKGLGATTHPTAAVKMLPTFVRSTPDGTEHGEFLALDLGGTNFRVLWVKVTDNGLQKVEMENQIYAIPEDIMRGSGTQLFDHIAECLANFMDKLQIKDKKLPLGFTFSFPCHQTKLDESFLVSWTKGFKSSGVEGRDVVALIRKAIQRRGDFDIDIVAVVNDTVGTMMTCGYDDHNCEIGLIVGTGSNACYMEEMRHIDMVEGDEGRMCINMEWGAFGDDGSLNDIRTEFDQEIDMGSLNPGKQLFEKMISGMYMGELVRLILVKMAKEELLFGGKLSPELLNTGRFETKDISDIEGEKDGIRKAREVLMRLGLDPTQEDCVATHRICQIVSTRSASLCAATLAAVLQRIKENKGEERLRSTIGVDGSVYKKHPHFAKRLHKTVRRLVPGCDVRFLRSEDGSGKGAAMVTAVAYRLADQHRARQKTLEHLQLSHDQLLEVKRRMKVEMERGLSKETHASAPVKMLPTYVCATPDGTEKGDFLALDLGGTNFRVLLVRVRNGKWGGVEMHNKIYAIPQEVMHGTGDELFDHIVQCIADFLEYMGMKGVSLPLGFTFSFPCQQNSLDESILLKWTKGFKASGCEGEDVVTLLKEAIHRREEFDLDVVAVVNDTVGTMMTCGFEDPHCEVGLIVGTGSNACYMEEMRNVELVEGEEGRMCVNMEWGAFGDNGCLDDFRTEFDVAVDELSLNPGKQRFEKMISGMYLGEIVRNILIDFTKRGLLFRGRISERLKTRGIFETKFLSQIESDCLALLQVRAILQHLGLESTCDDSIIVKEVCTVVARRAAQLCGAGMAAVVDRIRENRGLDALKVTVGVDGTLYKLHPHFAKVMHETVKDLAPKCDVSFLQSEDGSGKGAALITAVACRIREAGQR
Assay endpoint: IC50 (µM)
Output spec: scalar in µM, unitless text.

Note to self: IC50 recorded for CC1(C)N=C2C(c3ccccc3)=CC(=O)C(c3ccccc3)=C2O1 was 34.6
